- experimentalDetails: In vivo pharmacokinetic profile in the dog
- measurementSetup: plasma, oral
Let's look at some compounds and their measured half-life.

[
  {
    "compoundStructureString": "Cc1c(Cc2cccnc2S(=O)(=O)c2ccccc2)c2cc(F)ccc2n1CC(=O)O",
    "unit": "h",
    "half-life": 3
  },
  {
    "compoundStructureString": "Cc1c(Cc2ccc(S(C)(=O)=O)cc2)c2cc(F)ccc2n1CC(=O)O",
    "unit": "h",
    "half-life": 1
  }
]

---

// values below are log10 Ki; system is CRTH2 receptor (Homo sapiens (Human), UniProt Q9Y5Y4)
Sequence (Q9Y5Y4 whole entry): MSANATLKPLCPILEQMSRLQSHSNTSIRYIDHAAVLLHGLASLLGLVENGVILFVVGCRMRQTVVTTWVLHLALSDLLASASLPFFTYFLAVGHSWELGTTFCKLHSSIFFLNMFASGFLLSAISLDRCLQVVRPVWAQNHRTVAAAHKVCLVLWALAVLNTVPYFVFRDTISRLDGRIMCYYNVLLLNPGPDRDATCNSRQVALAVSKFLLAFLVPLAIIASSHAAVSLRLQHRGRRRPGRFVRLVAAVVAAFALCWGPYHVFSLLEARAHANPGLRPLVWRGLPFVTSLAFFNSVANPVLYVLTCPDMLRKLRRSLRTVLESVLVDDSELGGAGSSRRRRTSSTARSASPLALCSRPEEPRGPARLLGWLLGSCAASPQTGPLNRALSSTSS
valueType: log10 Ki (log10 of the value in nM)

[
  {
    "molecule": "Cc1c(Cc2ncccc2S(=O)(=O)c2ccccc2)c2cc(F)ccc2n1CC(=O)O [Compound C]",
    "log10 Ki": 2.99
  },
  {
    "molecule": "Cc1c(Cc2cccnc2)c2cc(F)ccc2n1CC(=O)O [Compound E]",
    "log10 Ki": 2.41
  },
  {
    "molecule": "Cc1c(Cc2ccc(S(C)(=O)=O)cc2)c2cc(F)ccc2n1CC(=O)O [Compound A]",
    "log10 Ki": 0.85
  },
  {
    "molecule": "Cc1c(Cc2ccncc2S(=O)(=O)c2ccccc2)c2cc(F)ccc2n1CC(=O)O [Compound B]",
    "log10 Ki": 0.00
  },
  {
    "molecule": "Cc1c(Cc2cccnc2S(=O)(=O)c2ccccc2)c2cc(F)ccc2n1CC(=O)O [Compound 1]",
    "log10 Ki": 0.30
  }
]
